ASSAY_SYSTEM: T1, AAV5 (adeno-associated virus 5)
T1 construct: also called adeno-associated virus serotype 5
ASSAY_SUMMARY: SPR, AAV amine-coupled to CM5 chip;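 note: nanobodies flowed as analyte at seven concentrations spanning 1–100 nM over immobilized AAV (500–800 RU), kinetic constants derived by fitting the binding curves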
Parameter pKd: see the listing below.
Please keep in mind that pKd is minus log10 of the molar concentration; only the number is needed.

Known pKd results, listed for orientation:
BINDER | pKd
A4-088 (VHH) VHH: VQLQESGGGLVQTGGSLRLSCAASGSRFSLNTMGWYRQAPGKQRELVAAVTRGGNTNYGDFVKGRFTISRDNAKNTVYLQMNSLRPEDTAVYYCHVDELRESSWTTSNLWGQGTQVTVSS | 6.70
A4-082 (VHH) VHH: VQLQESGGGLVQPGGSLRLSCAASGSRFSLNTMGWYRQAPGKQRELVATVTRGGSTKYADFVKGRFTISRDNAKNTVYLQMNSLRPEDTAVYYCHVDELRESGWTTSNLWGQGTQVTVSS | 7.03
A4-073 (VHH) VHH: VQLQESGGGLVQPGGSLRLSCAASGSNFSINTMGWYRQAPGKQREMVATVTRGGSTNYGDFVKGRFTISRDNAKNTVYLQMNSLRPEDTAVYYCHVDEIRQSSWTTSNIWGQGTQVTVSS | 5.94

Query binder follows.
The reported value for A4-074 (VHH) VHH: VQLQESGGGLVQSGGSLRLSCAASGSMFSLNTMGWYRQAPGKQRELVATITRGGGTSYADSVKGRFTISRDNAKNTVYLQMNSLRPEDTAVYYCHVDELRQSSWTTSNLWGQGTQVTVSS in terms of pKd is 8.33

Reference source: patent US20260193326A1
